System: JAK1-dependent STAT6 phosphorylation downstream of IL-13 stimulation in TF-1 human erythroleukemia cells
test_name: cells
condition_context: TF-1, read-out: IL-13-pSTAT6 IC50
pIC50: −log10 of the molar value.
pIC50: recorded values
measured_endpoint: pIC50

O=C(c1ccc(Nc2nc3c(N4CCC(O)(c5ccc(Cl)cc5)CC4)cccn3n2)cc1)N1CCCCC1Cc1ccccn1 (stereo not shown): 6.88
CCOC(=O)N1CC=C(c2cccn3nc(Nc4ccc(C(=O)N5CCCC(O)(CN6CCCC6)CC5)cc4)nc23)CC1 (stereo not shown): 7.20
O=C(c1ccc(Nc2nc3c(N4CCC(O)(c5ccc(Cl)cc5)CC4)cccn3n2)cc1)N1CCN(CCn2ccnc2)CC1: 7.47
CN1CCC(N(C)C(=O)c2ccc(Nc3nc4c(C5=CCN(C(=O)[C@H]6CC[C@H](C#N)CC6)CC5)cccn4n3)cc2)CC1: 6.14
O=C(CCC(F)(F)F)N1CC=C(c2cccn3nc(Nc4ccc(C(=O)N5CCN(c6cccnc6)CC5)cc4)nc23)CC1: 8.34
CNC1CN(C(=O)c2ccc(Nc3nc4c(N5CCC(CO)(c6ccc(Cl)cc6)CC5)cccn4n3)cc2)C1: 7.81
CN1CC[C@H]2CN(C(=O)c3ccc(Nc4nc5c(C6=CCN(C(=O)CCC(F)(F)F)CC6)cccn5n4)cc3)C[C@H]21: 8.54
CN(CCc1ccncc1)C(=O)c1ccc(Nc2nc3c(C4=CCN(C(=O)CCC(F)(F)F)CC4)cccn3n2)cc1: 8.28
O=C(CCC(F)(F)F)N1CC=C(c2cccn3nc(Nc4ccc(C(=O)N5CCCN(c6ccncc6)CC5)cc4)nc23)CC1: 7.41
CN1CCC(N(C)C(=O)c2ccc(Nc3nc4c(N5CCC(C#N)CC5)cccn4n3)cc2)CC1: 6.63
O=C(c1ccc(Nc2nc3c(N4CCC(O)(c5ccc(Cl)cc5)CC4)cccn3n2)cc1)N1CC[C@H]2CNC[C@H]21: 6.94
O=C(c1ccc(Nc2nc3c(N4CCC(O)(c5ccc(Cl)cc5)CC4)cccn3n2)cc1)N1CCC2(CCNC2)C1 (stereo not shown): 6.72
CN1CCCC(CN(C)C(=O)c2ccc(Nc3nc4c(N5CCC(O)(c6ccc(Cl)cc6)CC5)cccn4n3)cc2)C1 (stereo not shown): 7.81
CCOC(=O)N1CC=C(c2cccn3nc(Nc4ccc(C(=O)N5CC6(CCN(C)C6)C5)cc4)nc23)CC1: 7.92
CC1CN(C2CCN(C(=O)c3ccc(Nc4nc5c(C6=CCN(C(=O)CCC(F)(F)F)CC6)cccn5n4)cc3)CC2)CC(C)O1 (stereo not shown): 8.33
COC1CCN(c2cccn3nc(Nc4ccc(C(=O)N(C)C5CCN(C)CC5)cc4)nc23)CC1: 6.12
CCOC(=O)N1CC=C(c2cccn3nc(Nc4ccc(C(=O)NCCNC)cc4)nc23)CC1: 6.80
CCOC(=O)N1CC=C(c2cccn3nc(Nc4ccc(C(=O)N5CC6(CCCNC6)C5)cc4)nc23)CC1: 7.52
CN1CCC(N(C)C(=O)c2ccc(Nc3nc4c(N5CCC(O)(c6ccc(F)cc6)CC5)cccn4n3)cc2)CC1: 7.12
